biological target: Human immunodeficiency virus type 1 integrase (Human immunodeficiency virus 1, UniProt Q7ZJM1)
Sequence (Q7ZJM1 whole entry): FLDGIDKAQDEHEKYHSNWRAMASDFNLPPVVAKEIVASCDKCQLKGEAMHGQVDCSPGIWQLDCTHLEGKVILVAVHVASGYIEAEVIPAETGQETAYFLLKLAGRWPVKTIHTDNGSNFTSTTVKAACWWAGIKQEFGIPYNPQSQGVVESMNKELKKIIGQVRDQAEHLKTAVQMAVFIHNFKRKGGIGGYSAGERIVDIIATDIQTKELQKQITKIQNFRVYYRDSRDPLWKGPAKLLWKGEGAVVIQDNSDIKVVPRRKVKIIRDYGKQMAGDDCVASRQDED
measured-quantity: IC50 (µM)
// return numeric value only (unit: µM, not printed)

>  <sample-smiles>
COc1cccc(-c2cccc(Nc3cc(=O)n(O)c(=O)n3C)c2)c1

>  <IC50 [µM]>
4.6

$$$$
>  <sample-smiles>
COc1cccc(OC)c1-c1cccc(Nc2cc(=O)n(O)c(=O)[nH]2)c1

>  <IC50 [µM]>
1.3

$$$$
>  <sample-smiles>
COc1ccc(-c2ccccc2Oc2cc(=O)n(O)c(=O)n2C)cc1

>  <IC50 [µM]>
1

$$$$
>  <sample-smiles>
Cn1c(Nc2cccc(-c3ccccc3)c2)cc(=O)n(O)c1=O

>  <IC50 [µM]>
2.2

$$$$
>  <sample-smiles>
COc1ccc(-c2ccc(Nc3cc(=O)n(O)c(=O)n3C)cc2)cc1

>  <IC50 [µM]>
4.4

$$$$
>  <sample-smiles>
Cc1ccc(-c2ccc(Nc3cc(=O)n(O)c(=O)[nH]3)cc2)cc1

>  <IC50 [µM]>
93

$$$$
>  <sample-smiles>
Cc1ccc(-c2cccc(Nc3cc(=O)n(O)c(=O)[nH]3)c2)cc1

>  <IC50 [µM]>
44

$$$$
>  <sample-smiles>
COc1ccc(-c2cccc(Nc3cc(=O)n(O)c(=O)[nH]3)c2)c(OC)c1

>  <IC50 [µM]>
1.2

$$$$
>  <sample-smiles>
Cn1c(Oc2ccc(-c3ccc(O)cc3)cc2)cc(=O)n(O)c1=O

>  <IC50 [µM]>
12

$$$$
>  <sample-smiles>
COc1cc(OC)cc(-c2ccc(Nc3cc(=O)n(O)c(=O)[nH]3)cc2)c1

>  <IC50 [µM]>
35

$$$$

IC50 lookup needed for Cn1c(Oc2cccc(-c3cccc(O)c3)c2)cc(=O)n(O)c1=O , thanks.
7.1

Try this compound too: Cc1noc(C)c1-c1ccc(Nc2cc(=O)n(O)c(=O)n2C)cc1
25

Then this compound: Cn1c(Nc2ccc(-c3cccc(C#N)c3)cc2)cc(=O)n(O)c1=O
30

Also need Cn1c(Nc2cccc(-c3cccc(C#N)c3)c2)cc(=O)n(O)c1=O , thanks.
7.1
